- system.under.test: human orexin type 2 receptor (Homo sapiens, UniProt O43614)
- Construct: expressed in transfected cells
- Sequence (O43614 1-444): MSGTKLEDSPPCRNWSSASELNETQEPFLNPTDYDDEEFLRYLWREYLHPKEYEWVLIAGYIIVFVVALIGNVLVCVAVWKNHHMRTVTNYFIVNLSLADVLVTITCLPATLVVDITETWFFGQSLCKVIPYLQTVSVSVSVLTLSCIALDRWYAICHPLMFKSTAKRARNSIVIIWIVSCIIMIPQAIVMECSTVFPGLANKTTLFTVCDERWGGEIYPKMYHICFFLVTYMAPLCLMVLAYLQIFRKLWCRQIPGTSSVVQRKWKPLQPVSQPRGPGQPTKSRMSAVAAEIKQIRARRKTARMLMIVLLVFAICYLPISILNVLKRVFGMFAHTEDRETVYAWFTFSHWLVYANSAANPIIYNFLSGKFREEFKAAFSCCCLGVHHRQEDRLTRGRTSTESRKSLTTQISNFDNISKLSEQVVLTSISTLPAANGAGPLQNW
- test.protocol: Measurement of orexin type 2 receptor agonist activity (calcium fluorescence, Fluo-4 AM, FDSS)
- Assay type: cell-based
- run.parameters: test compound 3 μM; CHO cells expressing human OX2 receptor; DMSO = 0%, orexin A (human) = 100%
result.type: OX2R agonist activity (3 μM, %)
Lab book: enter the figure in %, no units written.

molecule: CCS(=O)(=O)NC1CCCCN(C(=O)C2CC2c2ccccc2-c2c(F)cccc2F)C1 (racemic) [Example 159]
result.type: OX2R agonist activity (3 μM, %)
observed.value: 101
--
molecule: CS(=O)(=O)NCC1N(C(=O)[C@@H]2C[C@@]2(F)c2ccccc2-c2c(F)cccc2F)CC1(F)F (stereo partly drawn) [Example 409]
result.type: OX2R agonist activity (3 μM, %)
observed.value: 100
--
molecule: CS(=O)(=O)N[C@H]1C[C@@H](F)CN(C(=O)[C@@H]2C[C@H]2c2ccccc2-c2c(F)cccc2F)C1 [Example 232]
result.type: OX2R agonist activity (3 μM, %)
observed.value: 103
--
molecule: CC1(NS(C)(=O)=O)CCCN(C(=O)[C@@H]2C[C@H]2c2ccccc2-c2c(F)cccc2F)C1 (mixture of isomers) [Example 310]
result.type: OX2R agonist activity (3 μM, %)
observed.value: 100
--
molecule: CN(C)S(=O)(=O)NCC1CCN1C(=O)C1CC1c1ccccc1-c1c(F)cccc1F (racemic) [Example 204]
result.type: OX2R agonist activity (3 μM, %)
observed.value: 96

Q: Give human orexin type 2 receptor (Homo sapiens, UniProt O43614) OX2R agonist activity (3 μM, %) for CCS(=O)(=O)NC1COCCN(C(=O)[C@@H]2C[C@H]2c2ccccc2-c2c(F)cccc2F)C1 (mixture of isomers) [Example 257]
Ans: 98

Q: Give human orexin type 2 receptor (Homo sapiens, UniProt O43614) OX2R agonist activity (3 μM, %) for CC1C(C(=O)N2CCC[C@H](NS(C)(=O)=O)C2)C1c1ccccc1-c1c(F)cccc1F (mixture of isomers) [Example 305]
Ans: 85

Q: Give human orexin type 2 receptor (Homo sapiens, UniProt O43614) OX2R agonist activity (3 μM, %) for CS(=O)(=O)N[C@H]1CCCN(C(=O)C2CC2(F)c2ccccc2-c2c(F)cccc2F)C1 (mixture of isomers) [Example 199]
Ans: 104
